Source listed as the MegaScale stability set (Tsuboyama et al. 2023).

B1: r16_88_TrROS_Hall (parent)
chain: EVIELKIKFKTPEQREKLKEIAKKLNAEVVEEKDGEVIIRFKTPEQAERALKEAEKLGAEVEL

# Variants of: B1
# Experiment: folding stability dG (cDNA display proteolysis); higher = more stable
# Experimental parameters: PBS, room temperature
Readout label: folding stability dG (kcal/mol)
A number alone suffices; assume kcal/mol.

Some entries whose results are on file:
[[record]]
mutation_label = "Q46D"
readout_label = "folding stability dG"
measure_unit = "kcal/mol"
endpoint_value = 4.37

[[record]]
mutation_label = "F9A"
readout_label = "folding stability dG"
measure_unit = "kcal/mol"
endpoint_value = 4.06

[[record]]
mutation_label = "G35V"
readout_label = "folding stability dG"
measure_unit = "kcal/mol"
endpoint_value = 4.35

[[record]]
mutation_label = "E60Y"
readout_label = "folding stability dG"
measure_unit = "kcal/mol"
endpoint_value = 4.21

[[record]]
mutation_label = "I39S"
readout_label = "folding stability dG"
measure_unit = "kcal/mol"
endpoint_value = 3.19

[[record]]
mutation_label = "I7V"
readout_label = "folding stability dG"
measure_unit = "kcal/mol"
endpoint_value = 4.44


Next up:
Query "E4V" yields folding stability dG of 4.58
